# study-target: T1, β2-Microglobulin (Homo sapiens, UniProt P61769)
# T1 construct: human β2-microglobulin; Amine-coupled to a CM5 chip (150 RU); also called antigen β2M; source: expressed and purified as previously described [27]
# T1 sequence (P61769 21-119): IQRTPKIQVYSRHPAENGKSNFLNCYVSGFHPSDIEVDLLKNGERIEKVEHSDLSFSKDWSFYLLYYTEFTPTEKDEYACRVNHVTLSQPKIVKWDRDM
# assay-procedure: SPR; Biacore T200; β2M immobilised on a CM5 chip to 150 RU; VHH samples after the modification procedure (NHS-Fluo:VHH 0, 1, 5 or 20; 2 h at 4 °C, ultrafiltration) in 2-fold serial dilution, 30 μL/min, HBS-EP+, 25 °C; 1:1 model with drift and RI2
# run-conditions: both partners purified
recorded-metric: koff (s⁻¹)
Number only, in s⁻¹; omit the unit.

Inquiry: Suppose we examine the binder NB-1 modified with 1 time of NHS-Fluo (VHH, as the VHH domain of Dm2; flexible (G4S)4 linker between the VHH domain and the His6 tag, written out from '(G4S)4'; A mixture of isomers with different numbers and places of fluorescein, unmodified VHH among them; also called NB-1-1; source: E. coli SHuffle T7, purified (HisTrap HP), modified with NHS-Fluo, ultrafiltration) VHH: QVQLVESGGGLVQAGGSLRLSCAASGSTLDSYYIGWFRQAPGKEREGVSCISSSGNSIRYVDSVKDRFTISRDNGKNTAYLHINSLRPEDTAVYYCAASRRGRKPGLPCSLVRERYAYWGQGTQVTVSS ; what koff value has been reported?
Reply text: 0.00761

Inquiry: Given the entry NB-1 (VHH, VHH domain of NB-1; flexible (G4S)4 linker between the VHH domain and the His6 tag, written out from '(G4S)4'; VHH-(G4S)4-His6; Template of the homology model: PDB 4KDT (GMQE 0.99). 'Origin' = no treatment; '0' = negative control, all physical steps of the modification without NHS-Fluo; also called NB-1-Origin; NB-1-0; source: E. coli SHuffle T7, purified (HisTrap HP)) VHH: QVQLVESGGGLVQAGGSLRLSCAASGSTLDSYYIGWFRQAPGKEREGVSCISSSGNSIRYVDSVKDRFTISRDNGKNTAYLHINSLRPEDTAVYYCAASRRGRKPGLPCSLVRERYAYWGQGTQVTVSS , report its measured koff.
Reply text: 0.00669

Inquiry: What value of measured koff is listed for NB-3 modified with 20 times of NHS-Fluo (VHH, as the VHH domain of Dm10; flexible (G4S)4 linker between the VHH domain and the His6 tag, written out from '(G4S)4'; A mixture of isomers with different numbers and places of fluorescein; also called NB-3-20; source: E. coli SHuffle T7, purified (HisTrap HP), modified with NHS-Fluo, ultrafiltration) VHH: QVQLVESGGGLVQPGGSLRLSCAASGFSLDYYAIGWFRQAPGKEREGVSCISSSDDSTYYAGSVKGRFKISRDNAKSTVYLQMNSLKPEDSAVYYCAALHSGNYYYTPSYICDAEMDYWGKGTLVTVSS ?
Reply text: 0.00402

Inquiry: Quick check: koff of NB-1 modified with 5 times of NHS-Fluo (VHH, as the VHH domain of Dm2; flexible (G4S)4 linker between the VHH domain and the His6 tag, written out from '(G4S)4'; A mixture of isomers with different numbers and places of fluorescein; also called NB-1-5; source: E. coli SHuffle T7, purified (HisTrap HP), modified with NHS-Fluo, ultrafiltration) VHH: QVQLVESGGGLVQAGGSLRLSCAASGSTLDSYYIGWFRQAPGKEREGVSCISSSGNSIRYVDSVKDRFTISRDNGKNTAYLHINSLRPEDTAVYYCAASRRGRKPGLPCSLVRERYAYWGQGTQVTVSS ?
Reply text: 0.00843
